- System: TK-10 renal
- Experimental Details: NCI-60 one-dose screen, 48 h
- Condition Details: 10 µM unless noted
Compounds without any hit were thinned out: in the full panel of roughly 83,000, 20% have a hit. Calls of active or inactive are those of the source. Rule for the calls: active = growth percent below 10; inactive = the rest.
Possible outcomes: yes (1) for active, no (0) for inactive

structure=O=c1c2ccccc2nc(-c2ccccc2)n1/N=C/c1ccc2ccccc2c1 assay_target="TK-10 renal" class_name="no (0)"
structure=CC(C)CSc1nc(NCCc2c[nH]c3ccccc23)c(C#N)c(-c2ccc(Cl)cc2)n1 assay_target="TK-10 renal" class_name="no (0)"
structure=Nc1nc(C(F)(F)F)cs1 assay_target="TK-10 renal" class_name="no (0)"
structure=COc1ccc2c(c1)c(-c1cc3nc(-c4cn(C)c5ncc(Br)cc45)cc(N)n3n1)cn2C assay_target="TK-10 renal" class_name="yes (1)"
structure=Cc1ccc(-n2c(-c3cc4ccccc4nc3Cl)noc2=O)cc1 assay_target="TK-10 renal" class_name="no (0)"
structure=O=C(NNc1nc2cc(F)ccc2n2c(CN3CCCCC3)ccc12)c1cnccn1 assay_target="TK-10 renal" class_name="yes (1)"
structure=COc1ccccc1C(=O)NN1C(=O)/C(=C/C2=Cc3ccccc3OC2)SC1=S assay_target="TK-10 renal" class_name="no (0)"

====

- Tested on: TK-10 renal
- Experimental Details: NCI-60 one-dose screen, 48 h (100 = growth as untreated, 0 = no growth, -100 = all killed)
- Condition Details: 10 µM unless noted
About 83,000 compounds went through this panel and 20% of them were active in at least one assay; those are over-represented in the sample as a whole.
Measurement Name: growth (%)

molecule=COc1ccc2cc([C@H](C)C(=O)N/N=C/c3ccc(Br)cc3)ccc2c1 assay_target="TK-10 renal" value_unit=% value_measured=101
molecule="Cc1cccc(NC(=O)[C@]23CCC(C)(C)CC2C2=CCC4[C@@]5(C)C[C@@H](O)[C@H](O)[C@@](C)(CO)C5CC[C@@]4(C)[C@]2(C)CC3)c1 (stereo partly drawn)" assay_target="TK-10 renal" value_unit=% value_measured=52.9
molecule=O=C(/C=C/c1cccc(OCc2ccccc2)c1)c1nc2ccccc2[nH]1 assay_target="TK-10 renal" value_unit=% value_measured=62.8
molecule="COc1ccc(C2=NN(c3ccccc3)C(c3ccc(OCc4ccccc4)c(OC)c3)C2)cc1OC (stereo not drawn)" assay_target="TK-10 renal" value_unit=% value_measured=120
molecule=Nc1nc(-c2ccccc2)c(N=Nc2ccc(Cl)cc2[N+](=O)[O-])s1 assay_target="TK-10 renal" value_unit=% value_measured=169
molecule=COc1ccc(C(=O)/C=C/c2cccc(Cl)c2Cl)cc1S(N)(=O)=O assay_target="TK-10 renal" value_unit=% value_measured=20.3
molecule=CCCCCCCCOc1cccc(S(=O)(=O)Nc2ccc(C)cc2C(=O)O)c1 assay_target="TK-10 renal" value_unit=% value_measured=102
molecule=COc1ccc(C(=O)/C=C/c2ccc(Oc3nc(Nc4ccc(F)cc4)nc(N(C)C)n3)c(OC)c2)cc1 assay_target="TK-10 renal" value_unit=% value_measured=95.7
molecule="CC1(C)CC[C@]2(C(=O)O)CC[C@]3(C)C(=CCC4[C@@]5(C)C[C@@H](O)[C@@H]6OC(c7cccc(Br)c7)OC[C@@]6(C)C5CC[C@]43C)C2C1 (stereo partly drawn)" assay_target="TK-10 renal" value_unit=% value_measured=35.4
molecule=O=C(/C=C/c1ccc(-c2ccccc2)cc1)c1nc2ccccc2n1Cc1ccc(F)cc1 assay_target="TK-10 renal" value_unit=% value_measured=55.8
molecule=CC(=O)Nc1ccc(-n2cnc3cc(-c4ccc(O)cc4)ccc32)cc1C(F)(F)F assay_target="TK-10 renal" value_unit=% value_measured=33
molecule=O=C(c1ccccc1)c1ccc2nc(-c3cccc(Cl)c3)[nH]c2c1 assay_target="TK-10 renal" value_unit=% value_measured=95.9
molecule="C#CCOc1cc(N(CC)CC)ccc1C(C(=O)NC(C)(C)C)N(C(=O)C1CCc2cc(F)ccc2O1)c1ccc(F)cc1 (stereo not drawn)" assay_target="TK-10 renal" value_unit=% value_measured=68.7
molecule=COc1cc2oc(-c3cccc(C(=O)Nc4cccc([N+](=O)[O-])c4)c3)cc(=O)c2c(OC)c1OC assay_target="TK-10 renal" value_unit=% value_measured=37.2
molecule="C=C1CCC2C3(C)COC(c4cccc(F)c4)OC3CCC2(C)C1C/C=C1/C(=O)OCC1O (stereo not drawn)" assay_target="TK-10 renal" value_unit=% value_measured=-6.05
molecule=Cc1ccc(-c2nc(Nc3ccccc3S(N)(=O)=O)c3ccccc3n2)cc1 assay_target="TK-10 renal" value_unit=% value_measured=151
molecule=Cn1cc(-c2nnc(N)nc2-c2c[nH]c3ccc(F)cc23)c2cccnc21 assay_target="TK-10 renal" value_unit=% value_measured=82.4
molecule=O=C1Nc2cc(Cl)ccc2/C1=C/c1cccc(OCc2ccccn2)c1 assay_target="TK-10 renal" value_unit=% value_measured=35.5
